Test system: K-562 leukemia
Assay: NCI-60 one-dose screen, 48 h (100 = growth as untreated, 0 = no growth, -100 = all killed)
Conditions: 10 µM unless noted
The panel holds about 83,000 compounds, 20% with a hit somewhere; the sample as a whole holds those more often.
Measured growth values are reported for all entries that follow.
State just the number; it will be interpreted in %.

Look over these answered cases.
CCC(=O)Oc1ccc(/C(=C(/C)Cc2cccc(OC)c2)c2ccc(OCCN(C)C)cc2)cc1 | -26.5
CCN1CCN(CC(=O)N2c3cccc4cccc(c34)N(C(=O)CN3CCN(CC)CC3)C2c2cn(-c3ccccc3)nc2-c2cccc([N+](=O)[O-])c2)CC1 | -52.9
CNc1ccc(Br)c2c1C(=O)c1ccccc1C2=O | 94.9
CCOC(=O)c1cc(C(=O)c2cc(OC)c(OC)c(OC)c2)n2c1ccc1ccccc12 | 12.3
O=C(Nc1ccc2c(c1)OCO2)C(=O)c1c[nH]c2cc(F)ccc12 | 26.4
COc1ccc(/C(C#N)=C/c2cc(OC)c(OC)c(OC)c2)cc1 | 19
C=C(C)[C@@H]1C[C@H](O)Cc2cc(F)ccc2N1 | 42.2
NC(=S)N/N=C1\CCCC(C(F)(F)F)C1 (stereo not given) | 46.3

Given the compound CCCN=C1NC(=O)/C(=C/c2nc(-c3ccc(OC)cc3)n3ccccc23)S1 , what is its reported growth?
91.6

What do you get for Cc1ccc(S(=O)(=O)Nc2c(Br)cc(Br)cc2C(N)=O)cc1 ?
119
